Test Method Notes: Pharmacokinetic analysis in ICR mice
Assay type: in vivo
Condition Set: mouse, plasma, IV, 10 mg/kg, read-out: T1/2 (half life) (converted)
Where no end group is shown, it is not given here.
Measured Parameter: half-life (h)

In [3]: df
Out[3]:
                                  substance  measured_parameter  data_value
0  WYVYPSM [Preparative Example 4, WYVYPSM, reference compound]           half-life        1.91

* * *

Test Method Notes: Metabolic stability in human liver microsomes
Condition Set: pH 7.4
Measured Parameter: remaining at 0.5 h (%)

>>> df
                              smiles_record  measured_parameter  unit_label  data_value
0  O=C1CC2(CCCC2)CC(=O)N1CCCCN1CCN(c2ncccn2)CC1  remaining at 0.5 h           %        6.15

* * *

Test Method Notes: Pharmacokinetic analysis in ICR mice
Type: in vivo
Condition Set: mouse, plasma, IV, 10 mg/kg, read-out: Vss (steady-state volume of distribution)
Where no end group is shown, it is not given here.
Measured Parameter: Vd (L/kg)

>>> print(df.to_string())
                                  substance  data_value
0  WYVYPSM [Preparative Example 4, WYVYPSM, reference compound]         783
